All values here come from ChEMBL document CHEMBL1157350.

# TESTED TARGET: Voltage-gated L-type calcium channel (Rattus norvegicus, UniProt P22002+Q02485+P27732)
# TEST SUMMARY: Inhibition of voltage-dependent L-type calcium channel in rat thoracic aorta ring assessed as effect on high K+ induced contraction by Magnus method
# Format: tissue-based
READOUT NAME: IC50 (nM)

COMPOUND	TESTED TARGET	IC50, nM
COc1ccc(/C=C/COC(=O)C2=C(C(OC)OC)NC(C)=C(C(=O)O)C2c2cccc(Cl)c2)cc1 (centres undefined)	Voltage-gated L-type calcium channel (Rattus norvegicus, UniProt P22002+Q02485+P27732)	540

P = COc1cccc(/C=C/COC(=O)C2=C(C(OC)OC)NC(C)=C(C(=O)O)C2c2cccc(Cl)c2)c1 (centres undefined)
Q = CC1=C(C(=O)O)C(c2cccc(Cl)c2)C(C(=O)OC/C=C/c2ccccc2)=C(C#N)N1 (centres undefined)
R = COC(OC)C1=C(C(=O)OC/C=C/c2ccccc2Cl)C(c2cccc(Cl)c2)C(C(=O)O)=C(C)N1 (centres undefined)
List the 3 entries from lowest IC50 to highest IC50 value. Put the labels in the requested order and list them out. R, Q, P
(R: 700 nM, Q: 2000 nM, P: 4400 nM)

###

# TESTED TARGET: Voltage-gated L-type calcium channel (Rattus norvegicus, UniProt P22002+Q02485+P27732)
# TEST SUMMARY: Inhibition of voltage-dependent L-type calcium channel in rat thoracic aorta ring assessed as effect on high K+ induced contraction by Magnus method
# Type: tissue-based
READOUT NAME: IC50 (nM)

Please review the entries below; each comes with its answer.
COMPOUND	ENDPOINT UNIT	IC50
COC(OC)C1=C(C(=O)OC/C=C/c2cccc(Cl)c2)C(c2cccc(Cl)c2)C(C(=O)O)=C(C)N1 (stereo not drawn)	nM	1000
CCC1=C(C(=O)OC/C=C/c2ccccc2)C(c2cccc(Cl)c2)C(C(=O)O)=C(C)N1 (stereo not drawn)	nM	7
COC(OC)C1=C(C(=O)OC/C=C/c2ccc(Cl)cc2)C(c2cccc(Cl)c2)C(C(=O)O)=C(C)N1 (stereo not drawn)	nM	1400
COC(OC)C1=C(C(=O)OC/C=C/c2ccc(C(F)(F)F)cc2)C(c2cccc(Cl)c2)C(C(=O)O)=C(C)N1 (stereo not drawn)	nM	3200
COc1ccccc1/C=C/COC(=O)C1=C(C(OC)OC)NC(C)=C(C(=O)O)C1c1cccc(Cl)c1 (stereo not drawn)	nM	5900

a = COC(OC)C1=C(C(=O)OC/C=C/c2ccccc2)C(c2cccc(Cl)c2)C(C(=O)O)=C(C)N1 (stereo not drawn)
b = COC(OC)C1=C(C(=O)O)C(c2cccc(Cl)c2)C(C(=O)OC/C=C/c2ccccc2)=C(C)N1 (stereo not drawn)
c = COC(OC)C1=C(C(=O)OC/C=C/c2ccc(F)cc2)C(c2cccc(Cl)c2)C(C(=O)O)=C(C)N1 (stereo not drawn)
Sort by IC50, descending. Submit the labels in the order that the ranking request calls for. a, c, b
(a: 8100 nM, c: 2000 nM, b: 1300 nM)

###

# TEST SUMMARY: Aqueous solubility of the compound
# Format: physicochemical
# EXPERIMENTAL CONTEXT: buffer
READOUT NAME: solubility (mg/mL)

P = CC1=C(C(=O)O)C(c2cccc(Cl)c2)C(C(=O)OCCC(c2ccccc2)c2ccccc2)=C(C(F)(F)F)N1 (stereo not drawn)
Q = COc1ccccc1/C=C/COC(=O)C1=C(C(OC)OC)NC(C)=C(C(=O)O)C1c1cccc(Cl)c1 (stereo not drawn)
Compare P and Q by numeric solubility and name the larger one. Please reply using the label of the selected record. Q

###

# TEST SUMMARY: Distribution coefficient, log D of the compound
# Format: physicochemical
# EXPERIMENTAL CONTEXT: octanol/water
READOUT NAME: logD

COMPOUND	logD
COC(OC)C1=C(C(=O)OC/C=C/c2ccccc2)C(c2cccc(Cl)c2)C(C(=O)O)=C(C)N1 (stereo not drawn)	1.29

P = COc1ccccc1/C=C/COC(=O)C1=C(C(OC)OC)NC(C)=C(C(=O)O)C1c1cccc(Cl)c1 (stereo not drawn)
Q = CC1=C(C(=O)O)C(c2cccc(Cl)c2)C(C(=O)OCCC(c2ccccc2)c2ccccc2)=C(C(F)(F)F)N1 (stereo not drawn)
Compare reported logD values for P and Q . Which is lower? // return label of chosen record P
(P: 1.2, Q: 3.51)
